test: Single-ascending dose (SAD) study in healthy subjects: plasma and urine pharmacokinetics; conditions: human, in vivo, po, 10 mg
measurementType: Cmax
Answer format: number, then unit.

Memo: CCC(=O)N[C@@H]1CCCc2c(-c3ccc4c(c3)CCC(=O)N4C)cncc21 [(R)-Compound 1] , reported Cmax: 125 ng/mL

* * *

experiment: Multiple-ascending dose (MAD) study, once daily for 10 days in healthy subjects: plasma pharmacokinetics; assay type: in vivo, human; conditions: human, plasma, oral, 1.5 mg, 1.5 mg QD, normal salt diet; Day 1; median (min, max); read-out: Tmax, D 1
measurementType: Tmax
Param answer (str): number followed by unit.

Query CCC(=O)N[C@@H]1CCCc2c(-c3ccc4c(c3)CCC(=O)N4C)cncc21 [(R)-Compound 1] yields Tmax of 2.5 h

* * *

assay: Multiple-ascending dose (MAD) study, once daily for 10 days in healthy subjects: plasma pharmacokinetics; assay type: in vivo, human; conditions: human, plasma, oral, 2.5 mg, 2.5 mg QD, low salt diet; Day 10; mean (CV %); read-out: Cmax, D 10
measurementType: Cmax (ng/mL)
Numbers only, in ng/mL.

Cmax reported for this molecule CCC(=O)N[C@@H]1CCCc2c(-c3ccc4c(c3)CCC(=O)N4C)cncc21 [(R)-Compound 1] : 54

* * *

assay: Multiple-ascending dose (MAD) study, once daily for 10 days in healthy subjects: plasma pharmacokinetics; type: in vivo, human; settings: human, plasma, oral, 2.5 mg, 2.5 mg QD, normal salt diet; Day 10; median (min, max); read-out: Tmax, D 10
measurementType: Tmax (h)
One number for each entry, in h.

Per the record, CCC(=O)N[C@@H]1CCCc2c(-c3ccc4c(c3)CCC(=O)N4C)cncc21 [(R)-Compound 1] has Tmax of 3

* * *

Experiment: Single-ascending dose (SAD) study in healthy subjects: plasma and urine pharmacokinetics
Details: human, in vivo, po, 1 mg
Protocol: A second, generally lower peak was often observed at 3 to 4 hours postdose. A second, generally lower peak was often observed at 3 to 4 hours post-dose. […] Over the anticipated therapeutically relevant dose range (through 10 mg), peak and overall exposures (as assessed by Cmax and area under the concentration-time curve [AUC]) increased in a generally dose-proportional manner. Single- and Multiple-Dose Plasma Pharmacokinetics of (R)-compound 1. […]
measurementType: AUC(0-t)

Data point: CCC(=O)N[C@@H]1CCCc2c(-c3ccc4c(c3)CCC(=O)N4C)cncc21 [(R)-Compound 1] ; AUC(0-t) = 147 ng·h/mL

* * *

Assay: Multiple-ascending dose (MAD) study, once daily for 10 days in healthy subjects: plasma pharmacokinetics
Type: in vivo, human
Details: human, plasma, oral, 0.5 mg, 0.5 mg QD, normal salt diet; Day 10; mean (CV %); read-out: AUC0-tau
Source text: This was a randomized, double-blind study to assess the safety, tolerability, PK, and PD of multiple oral doses of (R)-compound 1 when administered to healthy adult subjects. The study consisted of 5 cohorts, with up to 12 subjects per cohort. […]
measurementType: AUC (ng·h/mL)
Give bare numbers, in ng·h/mL.

Lab note: CCC(=O)N[C@@H]1CCCc2c(-c3ccc4c(c3)CCC(=O)N4C)cncc21 [(R)-Compound 1] gave AUC of 155

* * *

conditions: human, plasma, Compound 1 plasma AUC0-24, Mean (SD), Treatment B: 10 mg Compound 1 with single 1000 mg metformin
measurementType: AUC(0-t) (ng·h/mL)
One number for each entry, in ng·h/mL.

Consider CCC(=O)NC1CCCc2c(-c3ccc4c(c3)CCC(=O)N4C)cncc21 (stereo not shown) . Its measured AUC(0-t) is 1660
